experiment: Cytotoxicity against mouse J774A1 cells assessed as cell viability at 0.1 ug/ml after 7 days by MTT assay relative to control; format: cell-based, J774.A1; details: read-out: Activity
Readout Label: viability at 168 h, 0.1 ug/ml

1. CO[C@H]1/C=C/O[C@@]2(C)Oc3c(C)c(O)c4c(O)c(c(/C=N/N5CCN(C)CC5)c(O)c4c3C2=O)NC(=O)/C(C)=C\C=C\[C@H](C)[C@H](O)[C@@H](C)[C@@H](O)[C@@H](C)[C@H](OC(C)=O)[C@@H]1C [RIFAMPIN] : 93%

====

tested on: Mycobacterium tuberculosis; assay: Antimycobacterial activity against Mycobacterium tuberculosis H37Rv ATCC 27294 at 50 ug/ml after 7 days by microplate Alamar blue assay relative to control; assay type: functional; details: H37Rv ATCC 27294, 168 h
Could you label it rule met if measured inhibition at 50 µg/mL is 80% or higher, and rule not met otherwise?

1) CCOC(=O)c1cc(C(=O)c2ccccc2)n2ccc(-c3ccn4c(C(=O)c5ccc(OC)cc5)cc(C(=O)OC)c4c3)cc12 : rule not met
2) CCOC(=O)c1cc(C#N)n2ccc(-c3ccncc3)cc12 : rule met
3) CCOC(=O)c1cc(C(N)=O)n2ccc(-c3ccncc3)cc12 : rule not met
4) CCc1nc(N)nc(N)c1-c1ccc(Cl)cc1 : rule not met
5) N[C@@H]1CONC1=O : rule met
